experiment: A CellTox Green Cytotoxicity Assay to monitor cytotoxicity in HEK293 cells - 16 hour (AID 1224888); settings: CellTox Green fluorescence; series mostly up to 76.8 µM; note: nearly all actives have a fitted effect of over 35% in size
Inconclusive results are not listed. Calls of active or inactive are those of the source. Calls come from the whole dose curve; as a rule, active = well fitted activation curve with a large enough effect in the repeat runs; inconclusive = weak or mixed curves; inactive = flat fitted curve, though single readings scatter.
Reply using exactly one outcome from active, inactive

Compound	Label
NC(=O)C(=O)N/N=C/c1ccc([N+](=O)[O-])o1	inactive

Name the outcome recorded for CCCCCCC(C)OC(=O)COc1nc(F)c(Cl)c(N)c1Cl (centres undefined) in the assay. inactive

Name the outcome recorded for `CN(C)c1ccc(N=Nc2ccccc2C(=O)O)cc1` in the assay. inactive

Name the outcome recorded for `CC(C)N=C(N)/N=C(\N)Nc1ccc(Cl)cc1` in the assay. inactive

Name the outcome recorded for `C=CC(=O)OCCOCC(CC)(COCCOC(=O)C=C)COCCOC(=O)C=C` in the assay. inactive

Name the outcome recorded for `CN(C)c1ccc(N=NS(=O)(=O)O)cc1` in the assay. inactive

Name the outcome recorded for `CC(=O)O[C@@H]1C[C@@H]2CC[C@@]1(C)C2(C)C` in the assay. inactive

Name the outcome recorded for `CCCCCCCC(=O)OCC` in the assay. inactive

Name the outcome recorded for `CN1CN(C)CN(C)C1` in the assay. inactive

Name the outcome recorded for `COc1cccc(O)c1` in the assay. inactive

Name the outcome recorded for C1CC(COCC2CO2)CCC1COCC1CO1 (centres undefined) in the assay. inactive

Name the outcome recorded for CCCCOC(=O)C(C)CC (centres undefined) in the assay. inactive

Name the outcome recorded for `C=CC(=O)OCCN(CC)CC` in the assay. inactive

Name the outcome recorded for `Cc1cc2c(C(C)C)c(O)c(O)c(C=O)c2c(O)c1-c1c(C)cc2c(C(C)C)c(O)c(O)c(C=O)c2c1O` in the assay. active

Name the outcome recorded for `Cc1oc(-c2ccccc2)nc1CCOc1ccc(C[C@H](Nc2ccccc2C(=O)c2ccccc2)C(=O)O)cc1` in the assay. inactive

Data credit: PubChem BioAssay (Tox21)
